Data provenance: ChEMBL document CHEMBL3727345

# STUDY SYSTEM: fructose-2,6-bisphosphatase 3/4 (Homo sapiens) (UniProt Q16875+Q16877)
# Sequence (Q16875 whole entry, looked up): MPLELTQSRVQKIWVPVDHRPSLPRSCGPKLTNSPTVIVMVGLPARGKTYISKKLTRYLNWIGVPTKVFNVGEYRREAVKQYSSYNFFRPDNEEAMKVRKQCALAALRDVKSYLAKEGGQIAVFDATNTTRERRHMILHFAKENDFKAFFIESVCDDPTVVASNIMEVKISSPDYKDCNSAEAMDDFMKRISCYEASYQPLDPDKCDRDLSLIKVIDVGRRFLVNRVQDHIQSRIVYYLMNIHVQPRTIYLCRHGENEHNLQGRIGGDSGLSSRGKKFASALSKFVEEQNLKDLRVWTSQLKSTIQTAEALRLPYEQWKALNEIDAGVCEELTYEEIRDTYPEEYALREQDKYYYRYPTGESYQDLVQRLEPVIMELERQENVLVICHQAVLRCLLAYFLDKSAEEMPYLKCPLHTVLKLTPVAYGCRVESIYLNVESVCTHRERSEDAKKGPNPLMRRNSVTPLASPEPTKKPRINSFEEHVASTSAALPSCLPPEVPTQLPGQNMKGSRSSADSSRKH
# Sequence (Q16877 whole entry, looked up): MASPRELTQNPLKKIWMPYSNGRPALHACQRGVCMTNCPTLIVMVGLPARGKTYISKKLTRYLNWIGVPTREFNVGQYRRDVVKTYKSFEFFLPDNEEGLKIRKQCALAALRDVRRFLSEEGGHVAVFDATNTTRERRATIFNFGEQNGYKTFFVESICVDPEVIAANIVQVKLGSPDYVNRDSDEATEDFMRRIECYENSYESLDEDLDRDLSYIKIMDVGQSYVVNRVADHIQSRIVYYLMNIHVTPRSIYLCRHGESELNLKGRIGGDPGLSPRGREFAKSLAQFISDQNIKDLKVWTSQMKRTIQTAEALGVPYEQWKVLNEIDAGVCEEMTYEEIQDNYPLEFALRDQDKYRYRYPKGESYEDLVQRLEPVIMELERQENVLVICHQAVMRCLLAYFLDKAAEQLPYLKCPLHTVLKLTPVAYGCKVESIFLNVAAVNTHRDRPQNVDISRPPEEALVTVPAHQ
# PROCEDURE SUMMARY: Inhibition of PFKFB3/PFKFB4 in human Panc1 cells assessed as fructose -2,6-bisphosphate production at 12.5 uM preincubated for 1 hr followed by addition of D-glucose measured after 2 hrs by spectrophotometry
# Type: cell-based
# CONDITION CONTEXT: PANC-1
For each entry below, report its inhibition value.

Input: GET /values?readout=inhibition&item= `CCCCCOC(=O)c1cccc(NS(=O)(=O)c2sc3ccc(Cl)cc3c2C)c1`
Output: > 50%

Input: GET /values?readout=inhibition&item= `CCOC(=O)c1sc(NS(=O)(=O)c2sc3ccc(Cl)cc3c2C)nc1C`
Output: > 50%

Input: GET /values?readout=inhibition&item= `COC(=O)c1cccc(NS(=O)(=O)c2oc3ccc(C(C)C)cc3c2C)c1`
Output: > 50%

Input: GET /values?readout=inhibition&item= `Cc1c(S(=O)(=O)Nc2cccc(C(=O)OCc3ccccc3)c2)sc2ccc(Cl)cc12`
Output: > 50%

Input: GET /values?readout=inhibition&item= `CCOC(=O)c1sc(NS(=O)(=O)c2cc(-c3cc(F)ccc3F)c(Cl)s2)nc1C`
Output: > 50%

Input: GET /values?readout=inhibition&item= `Cc1c(S(=O)(=O)Nc2cccc(C(=O)Oc3ccccc3)c2)sc2ccc(Cl)cc12`
Output: > 50%

Input: GET /values?readout=inhibition&item= `CCOC(=O)c1cccc(NS(=O)(=O)c2sc3ccc(Cl)cc3c2C)c1`
Output: > 50%

Input: GET /values?readout=inhibition&item= `COCCOC(=O)c1cccc(NS(=O)(=O)c2sc3ccc(Cl)cc3c2C)c1`
Output: > 50%

Input: GET /values?readout=inhibition&item= Cc1c(S(=O)(=O)Nc2cccc(C(=O)OCC3CCOC3)c2)sc2ccc(Cl)cc12 (stereo not given)
Output: > 50%

Input: GET /values?readout=inhibition&item= `Cc1c(S(=O)(=O)Nc2cccc(C(=O)OCCn3cccc3)c2)sc2ccc(Cl)cc12`
Output: > 50%
